Measured values drawn from PubChem BioAssay AID624119 for this set.

- measuredTarget: UniProt:P10635
- Sequence (P10635 whole entry, looked up): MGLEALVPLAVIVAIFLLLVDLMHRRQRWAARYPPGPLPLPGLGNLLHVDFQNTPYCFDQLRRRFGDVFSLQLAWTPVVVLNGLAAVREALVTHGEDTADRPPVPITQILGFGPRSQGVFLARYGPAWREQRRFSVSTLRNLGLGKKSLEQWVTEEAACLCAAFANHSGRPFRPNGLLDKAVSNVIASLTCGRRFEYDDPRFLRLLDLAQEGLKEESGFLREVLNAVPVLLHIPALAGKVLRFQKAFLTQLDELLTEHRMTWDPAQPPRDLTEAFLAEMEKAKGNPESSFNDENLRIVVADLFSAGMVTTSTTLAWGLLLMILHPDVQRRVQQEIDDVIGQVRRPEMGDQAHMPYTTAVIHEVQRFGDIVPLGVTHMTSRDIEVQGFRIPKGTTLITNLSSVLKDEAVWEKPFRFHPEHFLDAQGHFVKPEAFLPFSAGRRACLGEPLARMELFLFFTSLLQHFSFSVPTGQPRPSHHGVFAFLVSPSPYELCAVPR
- assayName: qHTS Assay for Inhibitors of Bacillus subtilis Sfp phosphopantetheinyl transferase (PPTase): CYP 2D6
- conditionInfo: CYP2D6 inhibition, single concentration 3 uM; at 3 µM; hits give high values
measuredQuantity: inhibition (%)
# value in %; strip the unit string

Write down inhibition measured for item `COc1ccnc(NC(=S)N2CCN(c3ncc(C(F)(F)F)cc3Cl)CC2)c1`
25
